Tested on: HCT-15 colon
Assay: NCI tumour cell line growth inhibition, 48 h; in the data active means GI50 below about 0.43 µM; inactive means the rest
Response enum: true = active, false = inactive

Use these answered entries as a reference point.
compound	group label
Cc1nn(-c2nc3ccccc3[nH]2)c2c1C(c1ccc3c(c1)OCO3)CC(=O)N2 (stereo unspecified)	false
N#CC1=C(N)Oc2c(sc3c(F)cccc23)C1c1ccc(F)cc1 (stereo unspecified)	true
CC(C)C[C@@H]1NC(=O)[C@@H]2CCCN2C(=O)[C@@H]2CCCN2C(=O)[C@H](CC(C)C)NC(=O)[C@H](CO)NC(=O)[C@H](CCCCN)NC(=O)[C@H]([C@H](C)O)NC(=O)[C@@H]2CCCC[C@@H](NC1=O)C(=O)N[C@@H](Cc1ccccc1)C(=O)N1CCC[C@H]1C(=O)N[C@@H](CC(=O)O)C(=O)NCC(=O)N[C@@H](CCCN=C(N)N)C(=O)N2	false
C[CH2][Sn]([CH2]C)([O]C(=O)c1cccc(F)c1)[O][Sn]([CH2]C)([CH2]C)[O]C(=O)c1cccc(F)c1	false
O=C(N/N=C\c1ccc(N(CCCl)CCCl)cc1Cl)c1cccnc1	false

Please let me know the test result on file for N#Cc1nc2cc(F)c(F)cc2nc1-c1ccc(Cl)cc1 .
false

Proceed to C=CC(=O)Nc1cccc(C)c1Nc1ncc2cc(-c3c(Cl)c(OC)cc(OC)c3Cl)ccc2n1
false

Proceed to CC1=C(C(=O)Nc2ccc(F)c(Cl)c2)C(c2cccc(Oc3ccccc3)c2)NC(=O)N1 (stereo unspecified)
false

Proceed to COC(=O)[C@@]1(O)C[C@H]2O[C@]1(C)n1c3ccccc3c3c4c(c5c6ccccc6n2c5c31)C(=O)NC4
true

Proceed to OCCNCCNc1c2ccccc2nc2oc3ccccc3c12
false

Proceed to COc1cccc2c(=O)c3c(sc12)c(NCCN(C)C)nc1ccccc13
false

Proceed to C=C1C(=O)O[C@H]2[C@H]1CC/C(CNS(=O)(=O)c1cccc3ccccc13)=C\CC[C@@]1(C)O[C@@H]21
false

Proceed to CCOC(=O)C#Cc1c(CC(=O)OCC)nnn1[C@H]1O[C@@H](CO)[C@@H]2OC(C)(C)O[C@@H]21
false

Proceed to COc1ccc2nc(C)cc(Nc3ccccc3O)c2c1
false

Proceed to Clc1ccc2c(c1)-c1ccccc1C1=NCCN12
false

Proceed to NCCCCN(Cc1nc2ccccc2[nH]1)[C@H]1CCCc2cccnc21
false

----------
Test system: A549 NSCLC
Experiment: NCI tumour cell line growth inhibition, 48 h; in the data active = GI50 below about 0.43 µM; inactive = the rest
Response enum: active, inactive

Use these answered entries as a reference point.
compound	group label
COc1ccc2c(c1)OC(N)=C(C#N)C2c1ccc(F)cc1 (stereo not drawn)	inactive
CS(=O)(=O)Nc1cc(-c2ccc3ncnc(Nc4ccc5c(cnn5Cc5ccccc5F)c4)c3c2)cnc1Cl	inactive
Cc1nn(-c2nc3ccccc3[nH]2)c2c1C(c1ccc3c(c1)OCO3)CC(=O)N2 (stereo not drawn)	inactive

Please let me know the test result on file for CCCN(CCC)C(=O)[C@H](CC)[C@@H]1CC[C@@H](C)[C@@H]([C@H](C)[C@@H](O)[C@@H](C)C(=O)[C@H](CC)C2O[C@]3(C=C[C@@H](O)[C@]4(CC[C@@](C)([C@H]5CC[C@](O)(CC)[C@H](C)O5)O4)O3)[C@H](C)C[C@@H]2C)O1 (stereo partly drawn) .
inactive

Proceed to CN1CCn2c(c(Sc3ccc(C(=O)NO)cc3)c3ccccc32)C1=O
inactive

Proceed to COc1ccc(/C=C/C(=O)c2cc3c(N)c(C(=O)Nc4ccccc4)sc3nc2C)cc1
active

Proceed to OC(CNc1ccnc2cc(Cl)ccc12)CNC1CCCCC1 (stereo not drawn)
inactive

Proceed to C[CH2][Sn]([Cl])([Cl])[CH2]C
inactive
